System: A673/TR/shEF
method-description: cell viability (LOESS-normalised, relative to median of negative controls) (log2 ratio); higher = more viable cells (less compound effect), active = hit call of the paper (over 3 MAD below the median)
experimental-setup: 2.5 µM; library screen: screen1; EWS-FLI1 expression: high (no doxycycline); treatment time: 72 h
Among all 3,200 compounds or so, about 300 (9.4%) showed activity. The entries come from a sample that favours actives as a whole.
cell viability (log2) values, listed per item
// no unit, no text: just the number

{"columns": ["compound", "cell viability (log2)"],
 "data": [
  ["CCOc1ccccc1N1C(=O)c2cccc3cccc(c23)C1=O", 0.058],
  ["N#C/C(=C\\c1ccc(O)c(O)c1)C(=O)Nc1ccccc1", -0.16]
]}

Kindly review the next compound as well.
Field request: cell viability (log2) | item: C=C1C(=O)OC2CC1C(OC(C)=O)C/C(C)=C/CC/C(C)=C\CCC2(C)O (stereo not drawn)
0.0625
